A collection of compounds and their measured HLM
# assay: Metabolic stability in human liver microsomes
# Assay type: in vitro ADME
# Design: unit not given beside the values
# particulars: Table 3, human liver microsome data, head HLM/MLM without unit
Form: value (number only, do not type unit).

| compound | HLM |
| --- | --- |
| Cc1nn(CC(C)(O)C(=O)N2CCC(O)(c3cccc4c[n+]([O-])ccc34)CC2)cc1-c1cccc(F)c1 (stereo not drawn) | 72 |
| Cc1nn(CC(C)(O)C(=O)N2CCC(c3cccc4[nH]c(=O)ccc34)CC2)cc1-c1cccc(F)c1 (stereo not drawn) | 17 |
| Cc1nn(CC(C)(O)C(=O)N2CCC(O)(c3cccc4cnccc34)CC2)cc1-c1cccc(F)c1 (stereo not drawn) | 23 |

We now examine a further compound.
HLM for Cc1nn(CC(C)(O)C(=O)N2CCC(C3=CC=CC4NC(=O)C=CC34)C2)cc1-c1cccc(F)c1 (stereo not drawn) ?
12
